This collection of values is drawn from patent US8497123B2.

Test system: rat cortical slices
Condition Parameters: rat cortical slices, 1 hr at 37° C.
Observation Type: LDH release (cell death)

CS(=N)(=O)CC[C@H](N)C(=O)O (some centres unmarked)    increased cell death
CN[C@H](CC(=O)O)C(=O)O [NMDA, N-methyl-D-aspartate]    increased cell death
CC(C)CCC[C@@H](C)[C@H]1CC[C@H]2[C@@H]3CC=C4C[C@@H](O)CC[C@]4(C)[C@H]3CC[C@]12C    without effect
CO[C@H]1[C@@H](O)[C@@H](C)O[C@@H](O[C@H]2CC[C@]3(C)[C@H]4CC[C@]5(C)[C@@H](C6=CC(=O)OC6)CC[C@]5(O)[C@@H]4CC[C@]3(O)C2)[C@@H]1O    little LDH release
CC[C@H](CC[C@@H](C)[C@H]1CC[C@H]2[C@@H]3CC=C4C[C@@H](O)CC[C@]4(C)[C@H]3CC[C@]12C)C(C)C    without effect

Req: # get_value(readout='LDH release (cell death)', item= C[C@@H]1O[C@@H](O[C@H]2C[C@@H](O)[C@]3(CO)[C@H]4[C@H](O)C[C@]5(C)[C@@H](C6=CC(=O)OC6)CC[C@]5(O)[C@@H]4CC[C@]3(O)C2)[C@H](O)[C@H](O)[C@H]1O )
Resp: little LDH release
